Target: T1, B-cat-Halo (UniProt P35222 1-781)
T1 sequence (looked up): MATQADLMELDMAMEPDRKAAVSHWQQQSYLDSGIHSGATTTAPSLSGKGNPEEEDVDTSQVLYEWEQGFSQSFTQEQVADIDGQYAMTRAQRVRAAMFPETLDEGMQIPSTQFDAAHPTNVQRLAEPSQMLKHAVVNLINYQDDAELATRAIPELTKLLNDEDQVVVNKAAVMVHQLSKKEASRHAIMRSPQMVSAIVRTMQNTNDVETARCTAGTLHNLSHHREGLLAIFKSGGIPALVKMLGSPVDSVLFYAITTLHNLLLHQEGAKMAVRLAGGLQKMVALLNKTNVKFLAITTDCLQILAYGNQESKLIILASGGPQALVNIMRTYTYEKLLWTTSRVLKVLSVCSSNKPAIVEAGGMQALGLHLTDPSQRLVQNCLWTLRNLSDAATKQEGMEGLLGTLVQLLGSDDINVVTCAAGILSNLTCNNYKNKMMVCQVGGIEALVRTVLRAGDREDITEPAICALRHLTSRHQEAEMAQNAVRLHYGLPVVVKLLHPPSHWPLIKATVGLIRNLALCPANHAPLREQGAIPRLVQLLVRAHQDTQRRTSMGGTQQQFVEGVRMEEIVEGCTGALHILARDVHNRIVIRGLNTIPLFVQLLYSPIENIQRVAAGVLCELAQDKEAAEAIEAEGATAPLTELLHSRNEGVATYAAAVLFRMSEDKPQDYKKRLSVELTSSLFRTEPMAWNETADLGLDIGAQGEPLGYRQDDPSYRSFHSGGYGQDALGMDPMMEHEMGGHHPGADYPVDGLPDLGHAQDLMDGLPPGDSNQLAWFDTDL
Test: cell-based or functional assay
Starred links: 1 amine or outer side, 2 acyl side, 3 side chain; linkers in the order of their positions; H or OH if unused. Positions of bridges follow the written chain, without caps; N, C: chain ends. Non-standard residues stand in square brackets, D forms with d. Primed or numbered codes have the meaning given here. *: point of attachment. PyrS2″ = (S)-3-amino-1-((pent-4-en-1-yloxy)carbonyl)pyrrolidine-3-carboxylic acid (stapling residue), C=CCCCOC(=O)N1CC[C@@](N[*:1])(C(=O)[*:2])C1; B5(16) = 2-amino-2-(pent-4-en-1-yl)hept-6-enoic acid = 2,2-bis(4-pentenyl)glycine (stitching residue), C=CCCCC(CCCC=C)(N[*:1])C(=O)[*:2]; B5(4) = 2,2-bis(4-pentenyl)glycine = 2-amino-2-(pent-4-en-1-yl)hept-6-enoic acid (stitching residue), C=CCCCC(CCCC=C)(N[*:1])C(=O)[*:2]; TfeGA = (S)-2-amino-3-((carboxymethyl)(2,2,2-trifluoroethyl)amino)propanoic acid, O=C([C@H](CN(CC(=O)[*:3])CC(F)(F)F)N[*:1])[*:2]; PyrS2 = (S)-3-amino-1-((pent-4-en-1-yloxy)carbonyl)pyrrolidine-3-carboxylic acid, C=CCCCOC(=O)N1CC[C@@](N[*:1])(C(=O)[*:2])C1; Phe(2-Cl) = N[C@@H](Cc1ccccc1Cl)C(=O)O; Bta = N[C@@H](Cc1csc2ccccc12)C(=O)O; αAllylPro = C=CC[C@@]1(C(=O)O)CCCN1; tBuAla = CC(C)(C)C[C@H](N)C(=O)O; Cha = N[C@@H](CC1CCCCC1)C(=O)O; NH(CH2)6NH2 = NCCCCCCN*

>  <binder>
Ac-[αAllylPro]D[Cha][B5(4)]DDAAFT[PyrS2″][Phe(2-Cl)][Bta]S-NH2 (staple 1-4, 4-11) [I-1048]

>  <reading-qualifier>
=

>  <NanoBRET Abs IC50 / µM>
8.8

$$$$
>  <binder>
Ac-[αAllylPro]D[tBuAla][B5(4)]D[TfeGA]AAFT[PyrS2][Phe(2-Cl)][Bta]Q-{NH(CH2)6NH2} (staple 1-4, 4-11) [I-1061]

>  <reading-qualifier>
=

>  <NanoBRET Abs IC50 / µM>
10.3

$$$$
>  <binder>
Ac-[αAllylPro]D[Cha][B5(16)]DDAAFT[PyrS2″][Phe(2-Cl)][Bta]Q-NH2 (staple 1-4, 4-11) [I-1042]

>  <reading-qualifier>
=

>  <NanoBRET Abs IC50 / µM>
11.4

$$$$
>  <binder>
Ac-[αAllylPro]DF[B5(16)]DDAAFS[PyrS2″][Phe(2-Cl)][Bta]Q-NH2 (staple 1-4, 4-11, also called Ac-PL3-Asp-Phe-B5-Asp-Asp-Ala-Ala-Phe-Ser-PyrS2-2C1F-BztA-Gln-NH2) [I-1045]

>  <reading-qualifier>
=

>  <NanoBRET Abs IC50 / µM>
23.9

$$$$
>  <binder>
Ac-[αAllylPro]D[Cha][B5(4)]DDAAFS[PyrS2][Phe(2-Cl)][Bta]S-NH2 (staple 1-4, 4-11) [I-1050]

>  <reading-qualifier>
=

>  <NanoBRET Abs IC50 / µM>
24.8

$$$$
>  <binder>
Ac-[αAllylPro]D[Cha][B5(16)]DDAAFN[PyrS2″][Phe(2-Cl)][Bta]Q-NH2 (staple 1-4, 4-11) [I-1040]

>  <reading-qualifier>
=

>  <NanoBRET Abs IC50 / µM>
9.3

$$$$
>  <binder>
Ac-[αAllylPro]DF[B5(16)]DDAAFT[PyrS2″][Phe(2-Cl)][Bta]Q-NH2 (staple 1-4, 4-11, also called Ac-PL3-Asp-Phe-B5-Asp-Asp-Ala-Ala-Phe-Thr-PyrS2-2C1F-BztA-Gln-NH2) [I-1043]

>  <reading-qualifier>
>

>  <NanoBRET Abs IC50 / µM>
20

$$$$
>  <binder>
Ac-[αAllylPro]DF[B5(16)]DDAAFN[PyrS2″][Phe(2-Cl)][Bta]S-NH2 (staple 1-4, 4-11, also called Ac-PL3-Asp-Phe-B5-Asp-Asp-Ala-Ala-Phe-Asn-PyrS2-2C1F-BztA-Ser-NH2) [I-1047]

>  <reading-qualifier>
=

>  <NanoBRET Abs IC50 / µM>
28.4

$$$$
>  <binder>
Ac-[αAllylPro]DF[B5(16)]DDAAFN[PyrS2″][Phe(2-Cl)][Bta]Q-NH2 (staple 1-4, 4-11, also called Ac-PL3-Asp-Phe-B5-Asp-Asp-Ala-Ala-Phe-Asn-PyrS2-2C1F-BztA-Gln-NH2) [I-1041]

>  <reading-qualifier>
>

>  <NanoBRET Abs IC50 / µM>
20

$$$$
>  <binder>
Ac-[αAllylPro]D[Cha][B5(16)]DDAAFS[PyrS2″][Phe(2-Cl)][Bta]Q-NH2 (staple 1-4, 4-11) [I-1044]

>  <reading-qualifier>
=

>  <NanoBRET Abs IC50 / µM>
17.6

$$$$
